Below, each entry is listed alongside its reported GI50.
tested on: MCF7; test: NCI tumour cell line growth inhibition, 48 h
The source made the active and inactive calls. Cut-off read from the data, not from the text of the source: active = GI50 up to about 1.1 µM and inactive = higher.

compound: CN1C/C(=C\c2cccs2)C(=O)/C(=C/c2cccs2)C1
system-under-test: MCF7
GI50: 15.7 µM (inactive)
//
compound: CC(C)[Si](OC1=CCC[C@H]2NC(=O)[C@@H](Cc3ccc([N+](=O)[O-])cc3)[C@@]12C)(C(C)C)C(C)C
system-under-test: MCF7
GI50: 3.73 µM (inactive)
//
compound: COc1cc(C(=O)O)c(-c2cc3c(cc2C=O)OCO3)c(OC)c1OC
system-under-test: MCF7
GI50: > 10 µM (inactive)
//
compound: CCOC(=O)C1=C(C)N(c2ccc(Cl)cc2)C2(O)C=CC(Nc3ccc(Cl)cc3)=C3C(=O)N(c4ccccc4)C(=O)C312 (stereo not given)
system-under-test: MCF7
GI50: 2.05 µM (inactive)
//
compound: COc1ccc(C(=C2C=CC=C2)c2ccc(OC)cc2)cc1
system-under-test: MCF7
GI50: 13.1 µM (inactive)

###

test system: SNB-19; assay: NCI tumour cell line growth inhibition, 48 h
Activity calls are given as the source filed them. Rule as the data show it: active = GI50 up to about 1.1 µM and inactive = higher.
experimental-endpoint: GI50

compound: CN(C)C(Cc1c[nH]cn1)C(=O)N1CCCC1C(N)=O (centres undefined)
result: > 100 µM (inactive)
//
compound: CN(C)CCCNc1ccc2nnn3c4ccc(OC(=O)c5ccc([N+](=O)[O-])cc5)cc4c(=O)c1c23
result: 2.95 µM (inactive)
//
compound: CC(=O)Nc1ccc(-c2nc3ccccc3s2)cc1O
result: > 100 µM (inactive)
//
compound: CCN(CC)CC(O)C1CCC(c2ccccc2)CC1 (centres undefined)
result: 25.8 µM (inactive)
//
compound: COc1cc2c(cc1OC)C(C(CBr)CBr)N(C1CCCC1)CC2 (centres undefined)
result: > 100 µM (inactive)
//
compound: COc1ccc(/C=C2\CCC(CCN(C)C)(C3=CCCC3)C2=O)cc1Br (centres undefined)
result: 9.44 µM (inactive)
//
compound: O=C1Sc2ccccc2C(=O)N2CSCC12 (centres undefined)
result: > 100 µM (inactive)
//
compound: C=C1CCC(O)C/C1=C/C=C1\CCCC2(C)C1CCC2C(C)CCCC(C)C (centres undefined)
result: 19.1 µM (inactive)
//
compound: O=C(c1cc(Cl)ccc1Cl)N1CCN(C(=O)c2cc(Cl)ccc2Cl)CC1
result: > 100 µM (inactive)

###

test system: OVCAR-8; test: NCI tumour cell line growth inhibition, 48 h
Activity calls are given as the source filed them. Rule as the data show it: active = GI50 up to about 1.1 µM and inactive = higher.
Outcomes: active, inactive

compound: [O-][S+]1Cc2ccccc2CS1 (stereo not given)
qualitative-label: inactive

compound: CN(C)CCCC12CCCCC1=Nc1ccccc12 (stereo not given)
qualitative-label: inactive

compound: COc1cccc2ccc(C(=O)c3ccccc3)nc12
qualitative-label: inactive

compound: COC(=O)CCCC(=O)NC1=C(Nc2ccccc2)C(=O)c2ccccc2C1=O
qualitative-label: inactive

compound: O=C(NN1C(=O)C(Cl)C1c1ccc(O)cc1)c1ccccc1O (stereo not given)
qualitative-label: inactive

compound: CCN(CC)CCNC(=O)c1cn2c(ccc3sc4ccccc4c(=O)c32)n1
qualitative-label: inactive

compound: CCn1c(SCC(=O)NNC(=S)Nc2ccc(Cl)cc2)nc2ccccc2c1=O
qualitative-label: inactive

compound: Nc1ccn(C2OC(CO)C(O)C2O)c(=O)c1 (stereo not given)
qualitative-label: inactive

compound: S=C1NCN2CCN(CC2)CNC(=S)C(=S)NCN2CCN(CC2)CNC1=S
qualitative-label: inactive

compound: O=C(/C=C\c1ccc(Cl)cc1Cl)c1cccs1
qualitative-label: inactive

compound: CC(C)CCC[C@@H](C)C1CCC2[C@@H]3CCC4C[C@@H](NS(C)(=O)=O)CC[C@]4(C)C3CC[C@@]21C (stereo not given in full)
qualitative-label: inactive

compound: COc1cccc(N2C(=O)C3CC(CC(C)(C)C)c4c([nH]c5ccccc45)C3C2=O)c1 (stereo not given)
qualitative-label: inactive

compound: COc1cc(C2c3cc4c(cc3[C@H](NS(C)(=O)=O)C3COC(=O)[C@H]23)OCO4)cc(OC)c1OC (stereo not given in full)
qualitative-label: active

compound: CCCNC(=O)CCC(C)[C@H]1CCC2C3C(C[C@H](OC(C)=O)[C@@]21C)[C@@]1(C)CCC2(C[C@H]1C[C@H]3OC(C)=O)OOC1(CCCCC1)OO2 (stereo not given in full)
qualitative-label: inactive

compound: CN(C)c1nc(N(C)C)sc(=O)n1
qualitative-label: inactive

compound: C1CN2CCO[SiH](O1)OCC2
qualitative-label: inactive

compound: CN(C)C(Cc1c[nH]cn1)C(=O)N1CCCC1C(N)=O (stereo not given)
qualitative-label: inactive

compound: COc1ccc(/C=C2\CCC(CCN(C)C)(C3=CCCC3)C2=O)cc1Br (stereo not given)
qualitative-label: inactive

compound: O=C(/C=C/c1ccccc1)c1ccc(NCc2nc3ccccc3[nH]2)cc1
qualitative-label: inactive

compound: [O-][S+]1c2ccccc2N=C(c2cccc3ccccc23)CC1c1cccc2ccccc12 (stereo not given)
qualitative-label: inactive

compound: BrCC[N+]12CC[N+](CCBr)(CC1)C2
qualitative-label: inactive

compound: CCCCCC(/C=C/[C@@H]1[C@H]2CC(=O)O[C@H]2C[C@H]1N1CCOCC1)OC1CCCO1 (stereo not given in full)
qualitative-label: inactive

compound: O=C(O)c1nn[nH]c1S
qualitative-label: inactive

compound: O=c1oc(-c2ccccc2)c(-c2ccccc2)n1-c1ccc(Br)cc1
qualitative-label: inactive

compound: CC(=O)O[C@H]1CC2C=CC3C(CCC31)O2 (stereo not given in full)
qualitative-label: inactive

compound: CCN(CC)CC(=O)/C=C/c1ccc(C)cc1
qualitative-label: inactive

compound: O=C1C(=Cc2ccc(O)cc2)N=C(c2ccccc2)N1n1c(-c2ccccc2)nc2ccccc2c1=O
qualitative-label: inactive

compound: O=C(O)c1c[nH]c2c(=O)[nH]cnc12
qualitative-label: inactive

compound: C/C=C1\C(=O)O[C@H]2C/C(C)=C/CC/C(C)=C/CC[C@@]3(C)O[C@@H]3C[C@@H]12
qualitative-label: inactive

compound: CCO/C(Cc1ccc(Cl)cc1)=N/NC(N)=S
qualitative-label: inactive

compound: O=C(Nn1c(-c2ccccc2)nc2ccccc2c1=O)c1ccc([N+](=O)[O-])cc1
qualitative-label: inactive

compound: O=C(N/N=C/c1ccc([N+](=O)[O-])cc1)c1cccc2nc3ccccc3nc12
qualitative-label: inactive

compound: CC12CCC(C(=O)OC1=O)C(C)(C)O2 (stereo not given)
qualitative-label: inactive

compound: CC(=O)O[C@H]1CC[C@@H](OC(C)=O)[C@H]2[C@H](O)[C@H](O)[C@@H]1n1c(=O)n(-c3ccccc3)c(=O)n12
qualitative-label: inactive

compound: C1=N\CCNCC/N=C/c2ccccc2OCc2cccc(n2)COc2ccccc2/1
qualitative-label: inactive
